test system: Heterodera schachtii; assay: Nematicidal activity against juvenile stage of Heterodera schachtii assessed as inhibition of mobility after 168 hr; type: functional
Please provide measured MIC50 for the entries that follow.

I'm hoping you can list MIC50 for every molecule here, please.
1. C/C=C(/C)C(=O)O[C@H]1CCN2CC=C(COC(=O)[C@](O)([C@H](C)OC)C(C)(C)O)[C@H]12
2. C/C=C1/C[C@@H](C)[C@@](C)(O)C(=O)OCC2=CC[N+]3([O-])CC[C@@H](OC1=O)[C@@H]23 (some centres not stated) [SENECIONINE N-OXIDE]
3. CO[C@H](C)[C@](O)(C(=O)OCC1=CCN2CC[C@H](O)[C@@H]12)C(C)C
4. CO[C@H](C)[C@](O)(C(=O)OCC1=CC[N+]2([O-])CC[C@H](O)[C@@H]12)C(C)C (some centres not stated) [HELIOTRINE N-OXIDE]

1: 3800 µg/mL; 2: 3400 µg/mL; 3: 2100 µg/mL; 4: 77400 µg/mL

Give one value of MIC50 per listed molecule.
1. C[C@H]1C(=O)O[C@@H]2CC[N+]3([O-])CC=C(COC(=O)[C@](C)(O)[C@]1(C)O)[C@H]23 (some centres not stated) [MONOCROTALINE N-OXIDE]
2. C[C@H]1C(=O)O[C@@H]2CCN3CC=C(COC(=O)[C@](C)(O)[C@]1(C)O)[C@H]23

1. 700 µg/mL
2. 2000 µg/mL

---

tested on: Meloidogyne incognita; assay: Nematicidal activity against juvenile stage of Meloidogyne incognita (root-knot nematode) assessed as inhibition of mobility incubated for 168 hr followed by compound wash out measured after 24 hr; type: functional
Calls of active or inactive are those of the source. The calls are words filed in the database; no cut-off is given here.
measuredEndpoint: MIC50

>>> assayvalue("CO[C@H](C)[C@](O)(C(=O)OCC1=CCN2CC[C@H](O)[C@@H]12)C(C)C [HELIOTRINE]")
"800 µg/mL"
>>> assayvalue("CO[C@H](C)[C@](O)(C(=O)OCC1=CC[N+]2([O-])CC[C@H](O)[C@@H]12)C(C)C (some centres not stated) [HELIOTRINE N-OXIDE]")
"1700 µg/mL"
>>> assayvalue("C/C=C(/C)C(=O)O[C@H]1CC[N+]2([O-])CC=C(COC(=O)[C@](O)(C(C)C)[C@@H](C)OC)[C@H]12 (some centres not stated) [LASIOCARPINE N-OXIDE]")
"inactive"
>>> assayvalue("C/C=C(/C)C(=O)O[C@H]1CCN2CC=C(COC(=O)[C@](O)([C@H](C)OC)C(C)(C)O)[C@H]12 [LASIOCARPINE]")
"1000 µg/mL"
>>> assayvalue("C/C=C1/C[C@@H](C)[C@@](C)(O)C(=O)OCC2=CC[N+]3([O-])CC[C@@H](OC1=O)[C@@H]23 (some centres not stated) [SENECIONINE N-OXIDE]")
"inactive"
>>> assayvalue("C[C@H]1C(=O)O[C@@H]2CCN3CC=C(COC(=O)[C@](C)(O)[C@]1(C)O)[C@H]23 [MONOCROTALINE]")
"400 µg/mL"

Kindly consider the entry below.
Determine reported MIC50 for C[C@H]1C(=O)O[C@@H]2CC[N+]3([O-])CC=C(COC(=O)[C@](C)(O)[C@]1(C)O)[C@H]23 (some centres not stated) [MONOCROTALINE N-OXIDE] ; test system: Meloidogyne incognita.
inactive
